So I've got a bunch of molecules here, and I need their IC50 values.
# system: Flt3 (Homo sapiens)
# Sequence (P36888 27-993): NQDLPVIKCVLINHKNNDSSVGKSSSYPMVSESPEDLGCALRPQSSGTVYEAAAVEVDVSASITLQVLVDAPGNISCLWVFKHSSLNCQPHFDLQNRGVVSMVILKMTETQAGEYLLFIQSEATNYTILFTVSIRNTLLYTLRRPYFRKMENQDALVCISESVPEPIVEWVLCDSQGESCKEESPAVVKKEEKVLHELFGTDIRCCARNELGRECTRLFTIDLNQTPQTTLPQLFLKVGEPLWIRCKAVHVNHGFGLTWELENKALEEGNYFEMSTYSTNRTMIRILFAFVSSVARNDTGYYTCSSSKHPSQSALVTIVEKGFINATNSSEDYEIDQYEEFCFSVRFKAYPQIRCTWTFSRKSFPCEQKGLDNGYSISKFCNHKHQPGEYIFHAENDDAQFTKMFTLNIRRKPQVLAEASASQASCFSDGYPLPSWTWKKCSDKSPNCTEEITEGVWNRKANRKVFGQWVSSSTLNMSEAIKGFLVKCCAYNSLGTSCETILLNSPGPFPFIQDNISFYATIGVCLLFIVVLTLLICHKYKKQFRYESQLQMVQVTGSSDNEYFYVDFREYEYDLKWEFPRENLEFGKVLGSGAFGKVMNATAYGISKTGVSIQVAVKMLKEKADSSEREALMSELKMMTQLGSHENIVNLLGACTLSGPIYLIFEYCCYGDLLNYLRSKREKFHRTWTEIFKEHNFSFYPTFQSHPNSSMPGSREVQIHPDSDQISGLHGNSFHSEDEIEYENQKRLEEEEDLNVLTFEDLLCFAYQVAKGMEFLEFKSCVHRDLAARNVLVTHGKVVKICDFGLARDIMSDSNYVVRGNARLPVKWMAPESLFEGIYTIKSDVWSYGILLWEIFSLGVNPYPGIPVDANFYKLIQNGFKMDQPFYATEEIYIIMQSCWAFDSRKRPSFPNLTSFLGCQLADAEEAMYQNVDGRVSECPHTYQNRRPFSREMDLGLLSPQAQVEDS

// batch mode: one IC50 value per listed entry
1. C[C@H](Nc1ncc2c(C3CCN(C)CC3)cn([C@H]3CC[C@H](O)CC3)c2n1)c1ccccc1
2. C[C@H](Nc1ncc2c(C3CCN(CCF)CC3)cn([C@H]3CC[C@H](O)CC3)c2n1)c1ccccc1

["> 30 µM", "5.5 µM"]
